The values you see were collected from the supplement of paper PMC10567573.

B1: EHMT1 (parent)
chain: EEINKNISDFGRQQLLPPFPSLHQ

variants of: B1; test: protein stability index of a GFP-peptide fusion (GPS, HEK-293T) (PSI 1-6); higher = more stable; settings: c terminus: a fixed tail appended;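 further: lentivirally expressed fusions sorted by FACS into six bins by GFP to DsRed ratio, PSI derived from sequencing read proportions per bin multiplied by bin number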
valueType: protein stability index
# respond with the number and nothing more

Worked set:
> print(dat)
                 constructsequence  measuredvalue
1  EEINKNISDFGQQQLLPPFPSLHQ [R12Q]           2.97
2  EEINKNISDNGRQQLLPPFPSLHQ [F10N]           3.24
3  EEINKNISDFGRQQFLPPFPSLHQ [L15F]           2.31
4  EEINKNISDFGRQQLLPGFPSLHQ [P18G]           3.31
5   EEINDNISDFGRQQLLPPFPSLHQ [K5D]           3.37

// below: protein stability index requested for another variant
Problem: Let me know recorded protein stability index for EEINKNISDFGRQQLLIPFPSLHQ [P17I] , thanks.
Result: 1.82
